system: RAW-Dual (murine macrophage reporter line); assay: NF-kB reporter (SEAP) activity fold change vs agonist alone; higher = enhanced NF-kB activity; conditions: modulator concentration 10 µM; agonist: MPLA […]
MEASURE NAME: NF-kB reporter
No unit in the answer, please; the number alone is enough.

Recorded results for 4 molecules are shown here.
{"MOLECULE": "COc1ccc(N(CC(=O)N(C)Cc2ccccc2)S(C)(=O)=O)cc1OC", "NF-kB reporter": 1.05}
{"MOLECULE": "O=C1C(CCS(=O)c2ccccc2)C(=O)N(c2ccccc2)N1c1ccccc1 (stereo not given)", "NF-kB reporter": 0.954}
{"MOLECULE": "COc1ccc(C=NNC(=O)CSc2nnc(-c3ccncc3)n2-c2ccccc2)cc1OC", "NF-kB reporter": 0.962}
{"MOLECULE": "CN(Cc1cnc2nc(N)nc(N)c2n1)c1ccc(C(=O)NC(CCC(=O)O)C(=O)O)cc1 (stereo not given) [Prestw-373]", "NF-kB reporter": 0.87}

Prompt: NF-kB reporter of O=S(=O)(N=Cc1c(O)ccc2ccccc12)c1cccs1 on RAW-Dual (murine macrophage reporter line)?
Completion: 0.876

----------
Measured IRF reporter values are reported for all entries that follow.
system: RAW-Dual (murine macrophage reporter line); experiment: IRF reporter (Lucia luciferase) activity fold change vs agonist alone; higher = enhanced IRF activity; conditions: modulator concentration 10 µM; agonist: 3'3'-cGAMP 10 ug/mL
Could you respond with only the numeric value?

Worked cases, IRF reporter given:
{"COMPOUND": "S=C(NCCN1CCCCC1)NCc1ccccc1", "NUMERIC READOUT": 1.01}
{"COMPOUND": "CC(C)(C)N.CCCC(NC(C)C(=O)N1C(C(=O)O)CC2CCCCC21)C(=O)OCC (configuration not stated)", "NUMERIC READOUT": 0.996}
{"COMPOUND": "Cc1cc(O)nc(NN)n1", "NUMERIC READOUT": 0.983}
{"COMPOUND": "Cc1nonc1OC(C)CNc1ccc([N+](=O)[O-])cc1 (configuration not stated)", "NUMERIC READOUT": 0.84}

Prompt: IRF reporter for CCC(NC(C)C)C(O)c1ccc(O)c(O)c1 (configuration not stated) [Prestw-749] ?
Completion: 0.988

Prompt: Suppose we examine the compound Oc1c2c(nc3cc(-c4ccc(Br)cc4)nn13)CCS2 ; what IRF reporter value has been reported?
Completion: 0.857

Prompt: # get_value(readout='IRF reporter', item= CCOC(=O)C1=C(N)OC(C)=C(C(=O)OC)C1c1cccnc1 (configuration not stated) )
Completion: 1.21

Prompt: // lookup IRF reporter for CCN(CC)CCOC(=O)c1ccc(N)cc1.Cl
Completion: 0.923

Prompt: Tell me the measured IRF reporter of COC(=O)C1=C(C)N(c2ccc(Br)cc2)C(=O)C1=Cc1ccc(O)cc1 , please.
Completion: 0.468

Prompt: Which IRF reporter reading was recorded for the compound CCN(CC)C(=O)C(=Cc1ccc(Br)cc1)NC(=O)c1ccccc1OC ?
Completion: 1.14

Prompt: Could you tell me which IRF reporter is on file for CCN(CC)Cc1cc(Nc2ccnc3cc(Cl)ccc23)ccc1O.Cl.Cl.O.O ?
Completion: 1.39

Prompt: Fill in the blank: the reported IRF reporter of CCCCCCc1ccc(O)cc1O is ____.
Completion: 0.588

Origin of measurements: the supplement of paper PMC10646978
